Source of measurements: paper PMC6401531

Provide the reported Emax gpH2R of each item.
target: gpH2R (atrium) (Cavia porcellus); test: Organ bath study on isolated guinea pig right atrium; settings: maximal response relative to maximal increase in heart rate induced by histamine (Emax=1.00)
Sequence (P47747 whole entry): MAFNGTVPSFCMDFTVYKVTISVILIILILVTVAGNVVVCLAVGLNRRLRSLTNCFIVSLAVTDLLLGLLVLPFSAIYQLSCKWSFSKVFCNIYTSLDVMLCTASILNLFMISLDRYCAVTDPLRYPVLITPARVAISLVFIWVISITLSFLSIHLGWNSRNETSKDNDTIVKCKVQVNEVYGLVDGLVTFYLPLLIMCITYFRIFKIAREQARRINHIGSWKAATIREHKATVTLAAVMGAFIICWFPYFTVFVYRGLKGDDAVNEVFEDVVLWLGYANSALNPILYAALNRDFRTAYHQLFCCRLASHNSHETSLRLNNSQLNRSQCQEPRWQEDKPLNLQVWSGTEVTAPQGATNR
One number for each entry.

| COMPOUND | Emax gpH2R |
| --- | --- |
| N=C(N)NCCCCCCCCCCCCNC(=N)NCCCc1c[nH]cn1 | 0.77 |
| O=C(NCCCc1c[nH]cn1)NC(=O)c1ccccc1 | 0.15 |

I need Emax gpH2R for every entry listed below, if you could help.
1. N=C(NCCCCCCCCN)NCCCc1c[nH]cn1
2. NCCc1c[nH]cn1 [compound 1, histamine, reference compound]
3. N=C(NCCCCCCCCNC(N)=O)NCCCc1c[nH]cn1
4. O=C(NC(=S)NCCCc1c[nH]cn1)c1ccccc1
5. Cc1nc(N)sc1CCCNC(=N)NCCCCCCCCNC(=N)N
6. N=C(NCCCCCCCCCCNC(N)=O)NCCCc1c[nH]cn1

a:
1. 0.75
2. 1.00
3. 0.94
4. 0.43
5. 0.72
6. 0.96
